Reported IC50 (M^-1), syncytium neutralization assay, HIV-1 MN on CEM-SS cells values for the following binders.
# test.system: gp120 glycoprotein of HIV-1 strain MN (HIV-1 strain MN, UniProt P05877 32-513, limits assumed)
# assay.summary: cell-based or functional assay
Your answer is read as M⁻¹, so omit the unit and give the number.

{"columns": ["binder", "test.result"],
 "data": [
  ["Fab 3b1 (Fab, V domains shown) VH: LEQSGAEVKKPGASVKVSCQASGYRFSNFTLMWVRQAPGQRFEWMGWINPYNGNKEFSAKFQDRVTFTADTSANTAYMELRSLRSADTAVYYCARVGQWNWDDSPQDNYYMDVWGKGTTVIVSS VL: ELTQSPGTLSLSPGERATFSCRSSHSIRSRRVAWYQHKPGQAPRLVIHGVSNRASGISDRFSGSGSGTDFTLTITRVEPEDFALYYCQVYGASSYTFGQGTKLERKR", "5.42e+09"],
  ["Fab 3b9 (Fab, V domains shown) VH: LEQSGAEVKKPGASVKVSCQASGYRFSNFTVHWVRQAPGQRFEWMGWINPYNGNKEFSAKFQDRVTFTADTSANTAYMELRSLRSADTAVYYCARVGPWRWDDSPQDNYYMDVWGKGTIVIVSS VL: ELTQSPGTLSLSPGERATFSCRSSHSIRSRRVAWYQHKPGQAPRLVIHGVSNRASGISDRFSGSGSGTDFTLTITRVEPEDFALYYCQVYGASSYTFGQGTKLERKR", "6.4e+09"]
]}

Note IC50 (M^-1), syncytium neutralization assay, HIV-1 MN on CEM-SS cells for the binder shown: Fab MT4 (Fab, V domains shown, also called Fab 4; 4H (heavy chain)) VH: LEQSGAEVKKPGASVKVSCQASGYRFSNFVIHWVRQAPGQRFEWMGWINPYNGNKEFSAKFQDRVTFTADTSANTAYMELRSLRSADTAVYYCARVGPYSWDDSPQDNYYMDVWGKGTTVIVSS VL: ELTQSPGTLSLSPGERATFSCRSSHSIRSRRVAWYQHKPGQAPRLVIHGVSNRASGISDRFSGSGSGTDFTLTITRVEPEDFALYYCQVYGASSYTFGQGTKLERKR 1.69e+08

Note IC50 (M^-1), syncytium neutralization assay, HIV-1 MN on CEM-SS cells for the binder shown: Fab 3b4 (Fab, V domains shown) VH: LEQSGAEVKKPGASVKVSCQASGYRFSNYTLIWVRQAPGQRFEWMGWINPYNGNKEFSAKFQDRVTFTADTSANTAYMELRSLRSADTAVYYCARVGPWNWDSPQDNYYMDVWGKGTTVIVSS VL: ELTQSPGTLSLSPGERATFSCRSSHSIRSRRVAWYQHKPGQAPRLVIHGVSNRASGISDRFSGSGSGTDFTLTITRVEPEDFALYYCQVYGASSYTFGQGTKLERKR 2.57e+09
